Tested on: Bacopa monnieri
measurement_notes: Toxicity against Bacopa monnieri assessed as shoot elongation at 50 ug/ml after 15 days by Bacopa sensor test (reference value: 0.8 cm)
Assay type: organism-based
details: in vivo, 360 h
measured_endpoint: Activity (cm)
Numbers only; they are read as cm.

COC(=O)C1=CO[C@@H](O[C@@H]2O[C@H](COC(c3ccccc3)(c3ccccc3)c3ccccc3)[C@@H](O)[C@H](O)[C@H]2O)[C@@H]2[C@@H](C)[C@@H](O)C[C@H]12: 0.4
CC[C@]1(O)C[C@@H]2CN(CCc3c([nH]c4ccccc34)[C@@](C(=O)OC)(c3cc4c(cc3OC)N(C)[C@H]3[C@@](O)(C(=O)OC)[C@H](OC(C)=O)[C@]5(CC)C=CCN6CC[C@]43[C@@H]65)C2)C1: 0.6
CCC(=O)OC[C@H]1O[C@@H](O[C@@H]2OC=C(C(=O)OC)[C@H]3C[C@H](OC(C)=O)[C@H](C)[C@@H]23)[C@H](OC(C)=O)[C@@H](OC(C)=O)[C@@H]1OC(C)=O: 0.65

// lookup Activity | system=Bacopa monnieri | key= COC(=O)C1=CO[C@@H](O[C@@H]2O[C@H](COC(=O)c3cccc([N+](=O)[O-])c3)[C@@H](OC(C)=O)[C@H](OC(C)=O)[C@H]2OC(C)=O)[C@@H]2[C@@H](C)[C@@H](OC(C)=O)C[C@H]12
0.8

Same read-out for CCCCCCCCCCCC(=O)OC[C@H]1O[C@@H](O[C@@H]2OC=C(C(=O)OC)[C@H]3C[C@H](OC(C)=O)[C@H](C)[C@@H]23)[C@H](OC(C)=O)[C@@H](OC(C)=O)[C@@H]1OC(C)=O ?
0
